Tested on: CMK
MEASUREMENT_PROTOCOL: CellTox Green cytotoxicity fluorescence relative to DMSO vehicle (fold of vehicle RFU); higher = more cell death (loss of membrane integrity), active = 2 or more
CONDITION_SUMMARY: 0.1 µM; 48 h
MEASUREMENT_KIND: CellTox Green cytotoxicity fluorescence
Number only, no unit.

These solved cases illustrate the format of a correct answer.
[
  {
    "MOLECULE": "O=C(NS(=O)(=O)c1ccc(Br)s1)c1ccc(Cl)cc1Cl",
    "CellTox Green cytotoxicity fluorescence": 0.99
  },
  {
    "MOLECULE": "COCC[n+]1c2c(n(Cc3cnccn3)c1C)C(=O)c1ccccc1C2=O [Sepantronium Bromide]",
    "CellTox Green cytotoxicity fluorescence": 1.02
  },
  {
    "MOLECULE": "CCO[C@@H]1OC(=O)C[C@@H]1NC(=O)[C@@H]1CCCN1C(=O)[C@@H](NC(=O)c1ccc(N)c(Cl)c1)C(C)(C)C",
    "CellTox Green cytotoxicity fluorescence": 0.981
  },
  {
    "MOLECULE": "NS(=O)(=O)C#Cc1ccccc1",
    "CellTox Green cytotoxicity fluorescence": 1
  },
  {
    "MOLECULE": "Cc1cccc(CC(=O)N2CCc3c2ccc(-c2cn(C)c4ncnc(N)c24)c3F)n1",
    "CellTox Green cytotoxicity fluorescence": 0.997
  },
  {
    "MOLECULE": "CN[C@@H](C)C(=O)N[C@H](C(=O)N1CCC[C@H]1C(=O)Nc1snnc1-c1ccccc1)C1CCCCC1",
    "CellTox Green cytotoxicity fluorescence": 1
  },
  {
    "MOLECULE": "Nc1nc(F)nc2c1ncn2[C@@H]1O[C@H](CO)[C@@H](O)[C@@H]1O",
    "CellTox Green cytotoxicity fluorescence": 0.982
  },
  {
    "MOLECULE": "CN(C)CC[C@H](CSc1ccccc1)Nc1ccc(S(=O)(=O)NC(=O)c2ccc(N3CCN(Cc4ccccc4-c4ccc(Cl)cc4)CC3)cc2)cc1[N+](=O)[O-]",
    "CellTox Green cytotoxicity fluorescence": 0.992
  }
]

Recorded result, COC(=O)[C@H](CCSC)NC(=O)c1ccc(NC[C@@H](N)CS)cc1-c1ccccc1 , CellTox Green cytotoxicity fluorescence: 0.897

Recorded result, CNC(=O)c1ccccc1Nc1cc(Nc2ccc(N3CCOCC3)cc2OC)ncc1C(F)(F)F , CellTox Green cytotoxicity fluorescence: 0.933

Recorded result, COc1nc(-c2ccc3c(c2)OCO3)n(-c2ccc(NC(=O)CSc3ccccc3)cc2)n1 , CellTox Green cytotoxicity fluorescence: 0.997

Recorded result, O=C(O)CSc1cc(NS(=O)(=O)c2ccc(Br)cc2)c2ccccc2c1O , CellTox Green cytotoxicity fluorescence: 0.961

Recorded result, Nc1cccc2c1CN(C1CCC(=O)NC1=O)C2=O (configuration not stated) [Lenalidomide] , CellTox Green cytotoxicity fluorescence: 0.929

---

System: Kasumi-1
MEASUREMENT_PROTOCOL: CellTox Green cytotoxicity fluorescence relative to DMSO vehicle (fold of vehicle RFU); higher = more cell death (loss of membrane integrity), active = 2 or more
CONDITION_SUMMARY: 0.01 µM; 48 h
Reported CellTox Green cytotoxicity fluorescence values for a set of compounds

These solved cases illustrate the format of a correct answer.
[
  {
    "SMILES_CODE": "O=C1NC(=NCc2cccs2)S/C1=C\\c1ccc2ncccc2c1",
    "CellTox Green cytotoxicity fluorescence": "0.991 (inactive)"
  },
  {
    "SMILES_CODE": "Cc1nn(C)c(COc2ccc(N3CCN(S(=O)(=O)N(C)C)CC3)cc2)c1-c1cccc2c(CCCOc3cccc4ccccc34)c(C(=O)O)n(CCN3CCOCC3)c12",
    "CellTox Green cytotoxicity fluorescence": "0.981 (inactive)"
  }
]

Form field CellTox Green cytotoxicity fluorescence for item CCCCCCCCCCCC1=C(O)C(=O)C=C(O)C1=O on Kasumi-1: 0.988 (inactive)

Form field CellTox Green cytotoxicity fluorescence for item COc1nc(-c2ccc3c(c2)OCO3)n(-c2ccc(NC(=O)CSc3ccccc3)cc2)n1 on Kasumi-1: 1.03 (inactive)

---

System: MV4-11
MEASUREMENT_PROTOCOL: CellTox Green cytotoxicity fluorescence relative to DMSO vehicle (fold of vehicle RFU); higher = more cell death (loss of membrane integrity), active = 2 or more
CONDITION_SUMMARY: 0.01 µM; 24 h
MEASUREMENT_KIND: CellTox Green cytotoxicity fluorescence

[
  {
    "COMPOUND": "CC[C@@]1(O)C(=O)OCc2c1cc1n(c2=O)Cc2cc3cc(O)ccc3nc2-1 [(S)-10-Hydroxycamptothecin]",
    "MEASURED_VALUE": "1.01 (inactive)"
  },
  {
    "COMPOUND": "C=CC(=O)N1CCC(Oc2cc3c(Nc4ccc(Cl)c(Cl)c4F)ncnc3cc2OC)CC1",
    "MEASURED_VALUE": "0.975 (inactive)"
  },
  {
    "COMPOUND": "COc1cccc(-n2c(=O)[nH]c3cc(Cl)n(-c4ccc(-c5cccc(OC)c5O)cc4)c3c2=O)c1",
    "MEASURED_VALUE": "0.975 (inactive)"
  },
  {
    "COMPOUND": "COc1ccc(CCNCc2ccc(OCc3ccc(Cl)nc3)c(OC)c2)cc1OC",
    "MEASURED_VALUE": "0.971 (inactive)"
  }
]

Recorded result, CCCCC(C=O)NC(=O)C(CC(C)C)NC(=O)C(CC(C)C)NC(C)=O (stereo unspecified) , CellTox Green cytotoxicity fluorescence: 0.985 (inactive)

Recorded result, COCC[n+]1c2c(n(Cc3cnccn3)c1C)C(=O)c1ccccc1C2=O [Sepantronium Bromide] , CellTox Green cytotoxicity fluorescence: 0.95 (inactive)

---

Reported CellTox Green cytotoxicity fluorescence values for a set of molecules
System: CMK
MEASUREMENT_PROTOCOL: CellTox Green cytotoxicity fluorescence relative to DMSO vehicle (fold of vehicle RFU); higher = more cell death (loss of membrane integrity), active = 2 or more
CONDITION_SUMMARY: 0.01 µM; 48 h
Number only, no unit.

These solved cases illustrate the format of a correct answer.
[
  {
    "MOLECULE": "CC(C)CC(NC(=O)C(Cc1ccccc1)CC(O)C(Cc1ccccc1)NC(=O)OC(C)(C)C)C(=O)NC(Cc1ccccc1)C(N)=O (configuration not stated)",
    "MEASURED_VALUE": 1
  },
  {
    "MOLECULE": "CCCCNc1ncc2c(-c3ccc(CN4CCN(C)CC4)cc3)cn([C@H]3CC[C@H](O)CC3)c2n1",
    "MEASURED_VALUE": 0.978
  },
  {
    "MOLECULE": "FC(F)(F)c1ccc(CNc2ccc(Cc3c[nH]c4ncc(Cl)cc34)cn2)cn1",
    "MEASURED_VALUE": 1
  },
  {
    "MOLECULE": "CCCC[C@@H](C=O)NC(=O)[C@H](CC(C)C)NC(=O)OCc1ccccc1",
    "MEASURED_VALUE": 0.98
  }
]

// switching to the query molecule
Recorded result, CC(=O)O/N=C1/C(c2c(O)[nH]c3cc(Br)ccc23)=Nc2ccccc21 , CellTox Green cytotoxicity fluorescence: 0.999

---

System: Kasumi-1
MEASUREMENT_PROTOCOL: CellTox Green cytotoxicity fluorescence relative to DMSO vehicle (fold of vehicle RFU); higher = more cell death (loss of membrane integrity), active = 2 or more
CONDITION_SUMMARY: 1 µM; 24 h
Reported CellTox Green cytotoxicity fluorescence values for a set of compounds
Number only, no unit.

These solved cases illustrate the format of a correct answer.
[
  {
    "COMPOUND": "Fc1ccc(CNc2ncnc3ccc(F)cc23)cc1 [Spautin-1]",
    "MEASURED_VALUE": 1.04
  },
  {
    "COMPOUND": "C/C(=N\\NC(=O)c1cccc(S(=O)(=O)N2CCOCC2)c1)c1cc(Cl)ccc1O",
    "MEASURED_VALUE": 0.937
  },
  {
    "COMPOUND": "CCCCCCCCCCCC1=C(O)C(=O)C=C(O)C1=O [Embelin]",
    "MEASURED_VALUE": 1.02
  },
  {
    "COMPOUND": "O=C(O)CSc1cc(NS(=O)(=O)c2ccc(Br)cc2)c2ccccc2c1O",
    "MEASURED_VALUE": 0.98
  },
  {
    "COMPOUND": "C=CCc1cccc(/C=N/NC(=O)CN2CCN(Cc3ccccc3)CC2)c1O",
    "MEASURED_VALUE": 0.916
  },
  {
    "COMPOUND": "CC(=NNC(=S)N1CCC1)c1ccccn1",
    "MEASURED_VALUE": 1.02
  }
]

// switching to the query compound
Recorded result, CN1CCN(CCCNc2ncc(Cl)c(-c3cc4c(C(=O)NC5CC5)cccc4s3)n2)CC1 , CellTox Green cytotoxicity fluorescence: 0.953
